Data provenance is the supplement of paper PMC12764529.

Test: folding stability dG unfold from chymotrypsin proteolysis; higher = more stable
MEASURED PROPERTY: folding stability dG unfold

>>> reading("SAGMEEILEAAREAIEAGLTVRIEVTFKDGKKEEIEIEVESLEELLEALEKLDEIESVKIEVLAPGEEPSAG [r5_956_TrROS_Hall]")
"2.95 kcal/mol"
>>> reading("SAGGSAGGSMTIPESEFKQMSEEELKKLLLENPEPVTVVTSDPEILERIKKIFEKLGIKITLESAGGSAGGS [r12_97_JUSTAS]")
"2.63 kcal/mol"
>>> reading("SASLEEILASLGYSVSRSVLPNGTEVVTARHPDGTTVTVTVTPDGTTVTVTPPDGTVTTLSVEDVRRALSAG [r14_578_JUSTAS]")
"3.12 kcal/mol"
>>> reading("SAGGSAGGSDKIKELAKKLKIVKVEKKKDGKYILLVKDEKTGKLYEIEVDLKTNKVTIKELKPSAGGSAGGS [r12_944_TrROS_Hall]")
"4.31 kcal/mol"
>>> reading("SAGGSAGGSMLVLHLPNGKEIPIPPGEFSEDTGVEDIAARIPPEVRRLRIYNEDGTEVEVPIDSAGGSAGGS [r20_161_TrMRF]")
"0.479 kcal/mol"
>>> reading("SMIKIKLKNGMEITIEKTPEKVKIKLKATGKEIELPLEELENMTEEELLEKLRKLAEELGMEVEEVEIEPSA [r9_1211_TrROS_Hall]")
"3.43 kcal/mol"

**Query** Fill in the blank: the reported folding stability dG unfold of SAGGSAGGGMTPEEARALAEAAGYEDVEVTVLSRDPENNVTVVEVTARAPGGGGAASVGTYTAPSAGGSAGG [r6_699_JUSTAS] is ____.
**Result** -0.245 kcal/mol

**Query** Same read-out for SAGGSAGGSAGGMKLVTLPDGKTYPFTSLEEFKEALLKETGKPVDLKNPVIYPVPPGLSSAGGSAGGSAGGS [r10_62_JUSTAS] ?
**Result** 0.959 kcal/mol

**Query** Consider next the sequence STLEELLEAIEKLPPGAVVRITITLENGEKIELPIEMTVEELKEQLEALAAEHPGKKIEIKIEVIPKEELSA [r9_37_TrROS_Hall] in the same way.
**Result** 2.78 kcal/mol

====

Assay: folding stability dG unfold (combined trypsin and chymotrypsin); higher = more stable
Use 3 kcal/mol as the dividing line for folding stability dG unfold, with the line itself on the Y side and lower values as N.

**Query** Please indicate if the recorded folding stability dG unfold for SAGGMVTLTLPSPDGSTLTVTVEKDPNADYYRATVTTHHPDGTVTVTESVIHPDGTTTTLATTTLPASAGGS [r16_213_JUSTAS] meets or exceeds 3 kcal/mol.
**Result** N

**Query** Item: SAGGSAGGSAGKKVLVLSEDEIAELLGLSKEEIENMSEEEKEKLALELAKKLGIDEVIITSAGGSAGGSAGG [r11_80_TrROS_Hall]
**Result** Y

**Query** // repeat for SAGAPVVEKKRTIPSPLGAPAYLVFVPEEDRIVFTRPGSGEPVELSVPPDSEVEVPAPPSGSLTYRWESAGG [r19_118_JUSTAS] and report
**Result** N

**Query** And for SAGGSAGGSKLEEILKKLPPNAKITIEKDEETNVYTITITNKNGEKYTFTFSKEEVKKLLEKLSAGGSAGGS [r12_174_TrROS_Hall] ?
**Result** Y

**Query** Now the same for SAGGSAFKVPPGNIKEEEDFKFKFPDGNNMKIKIIRYPGKKRLMMENPGNNEPQTMPVEDLKEMLQSAGGSA [r15_329_TrROS]
**Result** N

**Query** Follow-up entry: SAGGEKTTLTLTLTLTLPPVTTVTYDPETGELRVETRTTTLTLTITVTADSPEEAERALRELLKKLGLSAGG [r13_35_TrROS_Hall]
**Result** Y

**Query** Now the same for SAGGGLTEEQLEEEAREVAERVEKEFAEATGIEPVEILSVEVFPDGTVRITLRFKGKGGLVTYTIPLSAGGS [r16_622_TrMRF]
**Result** Y
